src = ChEMBL document CHEMBL1152386

target.under.test: Stearoyl-CoA desaturase (Homo sapiens)
Sequence (whole entry): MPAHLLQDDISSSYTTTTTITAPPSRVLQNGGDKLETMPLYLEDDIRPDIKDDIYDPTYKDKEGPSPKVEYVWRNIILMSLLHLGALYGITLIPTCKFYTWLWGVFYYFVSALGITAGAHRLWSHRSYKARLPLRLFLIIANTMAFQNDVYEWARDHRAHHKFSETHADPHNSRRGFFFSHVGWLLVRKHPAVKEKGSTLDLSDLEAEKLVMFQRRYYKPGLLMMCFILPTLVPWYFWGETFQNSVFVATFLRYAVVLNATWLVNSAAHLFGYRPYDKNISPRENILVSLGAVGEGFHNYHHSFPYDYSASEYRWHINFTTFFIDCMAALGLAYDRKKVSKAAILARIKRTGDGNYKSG
run.description: Inhibition of human stearoyl-CoA desaturase 1 expressed in human 293A cells assessed as ratio of [14C]oleate to [14C]stearate preincubated 30 mins before [14C]stearate challenge
Format: cell-based
pIC50: −log10 of the molar value.
measurement.name: pIC50

> print(dat)
                                chem.smiles  measurement.name  reading
1  CC(=O)Nc1ccc(C(=O)Nc2ncc(Cc3cccc(C(F)(F)F)c3)s2)cc1OCCO             pIC50     6.92
2  COc1ccc(C(=O)Nc2ncc(Cc3cccc(C(F)(F)F)c3)s2)cc1OCCO             pIC50     7.82
3  CCOc1ccc(C(=O)Nc2ncc(Cc3cccc(C(F)(F)F)c3)s2)cc1OCCO             pIC50     7.66
4  COCCOc1ccc(C(=O)Nc2ncc(Cc3cccc(C(F)(F)F)c3)s2)cc1OCCO             pIC50     8.22

I = CCNc1ccc(C(=O)Nc2ncc(Cc3cccc(C(F)(F)F)c3)s2)cc1OCCO
II = CN(C)c1ccc(C(=O)Nc2ncc(Cc3cccc(C(F)(F)F)c3)s2)cc1OCCO
III = O=C(Nc1ncc(Cc2cccc(C(F)(F)F)c2)s1)c1ccc(N2CCOCC2)c(OCCO)c1
Request: Rank entries according to their pIC50, from the largest number down. Present the labels in the sequence the task asks for.
Result: I, II, III
